# credit: PubChem BioAssay (NCI)

Property: growth inhibition; scope: individual molecules
PROCEDURE_DETAILS: NCI Yeast Anticancer Drug Screen. Data for the CLN2oe strain (AID 163);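 also: 0% = growth of vehicle-only control cultures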
ASSAY_SETUP: S. cerevisiae CLN2oe strain, at 1.2 µM, hits give high values
This is part of a sample that, as a whole, favours compounds with a hit. Of some 79,000 tested, about 15% had one in any assay.

{"MOLECULE": "O=C1c2ccccc2C(=O)c2cc(S(=O)(=O)Nc3ccccc3)ccc21", "growth inhibition (%)": -6}
{"MOLECULE": "CC(=O)C1=C(O)C2(C)c3c(O)c(C)c(O)c(C(C)=O)c3OC2(Sc2ccccc2)CC1=O (stereo unspecified)", "growth inhibition (%)": -1}
{"MOLECULE": "NC(N)=N/N=C/c1cc(Cl)cc(Cl)c1O", "growth inhibition (%)": 15}
{"MOLECULE": "CSc1s[s+]c(SC)c1-c1ccccc1", "growth inhibition (%)": 9}
{"MOLECULE": "CCCCCCCCCCCCCCCCCCNC(=S)/N=C\\C1=C(O)c2ccccc2C1=O", "growth inhibition (%)": -10}
{"MOLECULE": "Clc1c(Cl)c(Cl)c2n[nH]nc2c1Cl", "growth inhibition (%)": -7}
{"MOLECULE": "CCN(CC)CC(O)c1cc(-c2ccc(Cl)cc2)nc2c(-c3ccccc3)cccc12 (stereo unspecified)", "growth inhibition (%)": 0}
{"MOLECULE": "O=C(/C=C/c1cccc(Br)c1)c1ccc(Cl)cc1", "growth inhibition (%)": -17}
{"MOLECULE": "COc1ccc2oc(-c3ccc(Cl)cc3)c(N3CCN(C)CC3)c2c1", "growth inhibition (%)": -6}
{"MOLECULE": "COc1cc(/C=C/c2sc3ccccc3[n+]2C)ccc1N(C)C", "growth inhibition (%)": -5}
{"MOLECULE": "COc1cc(N(C)C)ccc1/C=C\\c1ccnc2ccccc12", "growth inhibition (%)": -11}
